# Tested on: SK-OV-3 ovarian
# procedure_details: NCI tumour cell line growth inhibition, 48 h
readout_name: TGI

[[record]]
compound = "O=S(=O)(NCCNc1cc(-c2cn(-c3ccccc3)nc2-c2cccc(O)c2)ccn1)c1ccc(F)cc1"
assay_value = "12.3 µM"

[[record]]
compound = "OC1OC(c2ccc[nH]2)C(F)(F)C(F)(F)C1(F)F (centres undefined)"
assay_value = "> 100 µM"

[[record]]
compound = "COc1ccc(/C=c2/[nH]c(=O)/c(=C\\c3ccc(OCc4ccccc4)cn3)[nH]c2=O)cc1"
assay_value = "> 100 µM"

[[record]]
compound = "NC(=Nc1ccc(Cl)c(Cl)c1)c1ccccc1N"
assay_value = "> 100 µM"

[[record]]
compound = "CC(C)[Si](OCC/C=C/C1CCC(=O)C1C(O)C1CCCCC1)(C(C)C)C(C)C (centres undefined)"
assay_value = "30.3 µM"

[[record]]
compound = "S=C(NCCCCCCNC(=S)Nc1c2ccccc2nc2ccccc12)Nc1c2ccccc2nc2ccccc12"
assay_value = "> 100 µM"

[[record]]
compound = "C/C=C/CP(=O)(c1ccccc1)c1ccccc1"
assay_value = "> 100 µM"

[[record]]
compound = "O=C1C=CC(=O)N1c1ccc2c(c1)Cc1cc(NC(=O)C(F)(F)F)ccc1-2"
assay_value = "> 100 µM"

[[record]]
compound = "Nc1c(C(=O)Nc2cccc3ccccc23)sc2nc3c(cc12)CCCCC3"
assay_value = "> 50 µM"

[[record]]
compound = "CC(C(O)c1ccccc1)N(C)/N=N/c1nc2c([nH]1)c(=O)n(C)c(=O)n2C (centres undefined)"
assay_value = "> 100 µM"

[[record]]
compound = "N#Cc1c(N)nc(N2CCOCC2)c(C#N)c1-c1cccc(O)c1"
assay_value = "> 100 µM"

[[record]]
compound = "CN(C)c1cccc(-c2cc(=O)c3cc4c(cc3[nH]2)OCO4)c1"
assay_value = "0.932 µM"

[[record]]
compound = "Cc1nc2c(s/c(=N\\N)n2-c2ccccc2)c(=O)[nH]1"
assay_value = "> 100 µM"

[[record]]
compound = "CC(=O)C1(c2ccccc2)CCCN(C)CC1 (centres undefined)"
assay_value = "> 100 µM"

[[record]]
compound = "CCOC(=O)Cc1nc2nn(Cc3ccccc3)cc2c(=O)[nH]1"
assay_value = "> 100 µM"

[[record]]
compound = "COC1CCC(OS(C)(=O)=O)CO1 (centres undefined)"
assay_value = "> 100 µM"

[[record]]
compound = "O=C1CC(n2cccc2)c2cc(Br)sc21 (centres undefined)"
assay_value = "> 100 µM"

[[record]]
compound = "Clc1cccc(Cl)c1C1SCc2nc3cc4ccccc4cc3n21 (centres undefined)"
assay_value = "> 100 µM"

[[record]]
compound = "C=C1C(C2(C)C=CC(=O)OC3(C)COC(=O)CC32)C(OC=O)C(OC(=O)C(O)C(C)CC)C2(C)C(c3ccoc3)CC(OC(C)=O)C12O (centres undefined)"
assay_value = "> 100 µM"

[[record]]
compound = "Cc1cc(S(=O)(=O)/N=C(\\N)n2nc(C)c(C)c2C)c(SCc2ccccc2)cc1Cl"
assay_value = "> 100 µM"

[[record]]
compound = "Cn1cc(C(=O)/C(Cl)=C(\\Cl)C(=O)O)c2ccccc21"
assay_value = "> 100 µM"

[[record]]
compound = "C[N+]1(C)C2CCC1CC(OC(=O)C(CO)c1ccccc1)C2 (centres undefined)"
assay_value = "> 100 µM"

[[record]]
compound = "OC1C=C2C3CN(Cc4cc5c(cc43)OCO5)[C@H]2C[C@@H]1O (some centres undefined)"
assay_value = "> 100 µM"

[[record]]
compound = "Cc1cc2c(cc1Cl)SC(NNC(=O)c1ccncc1)=NS2(=O)=O"
assay_value = "> 10 µM"


* * *

# Test system: HT29 colon
# procedure_details: NCI tumour cell line growth inhibition, 48 h
readout_name: TGI

[[record]]
compound = "O=C(Nc1cccc(-c2nc3ccccc3[nH]2)c1)c1cccc(NC(=O)c2ccco2)c1"
assay_value = "3.4 µM"

[[record]]
compound = "COc1ccc(C(=O)O)c2c(=O)c3ccccc3[nH]c12"
assay_value = "> 100 µM"

[[record]]
compound = "Cc1ccc(C2=NN(C)COC2C(F)(F)F)cc1 (configuration not stated)"
assay_value = "> 100 µM"

[[record]]
compound = "Nc1ccn(C2OC(COP(=O)(O)O)C(O)C2O)c(=O)n1 (configuration not stated)"
assay_value = "> 100 µM"

[[record]]
compound = "COC1=CC(C)C2C[C@H]3O[C@H](O)C[C@H]4C(C)C(=O)C(O)C([C@@]2(C)C1=O)[C@@]34C (some centres not stated)"
assay_value = "> 100 µM"

[[record]]
compound = "CCC[C@H](Nc1nc(-c2ccc(NC(=O)NCC)c(OC)c2)ncc1C)c1cccnc1"
assay_value = "16.9 µM"

[[record]]
compound = "CCOC(=O)C(=O)Nc1ccc([N+](=O)[O-])cc1C#N"
assay_value = "> 100 µM"


* * *

# System: HS 578T breast
# procedure_details: NCI tumour cell line growth inhibition, 48 h
readout_name: TGI

[[record]]
molecule = "CNC(=O)C(C)NC(=O)C(Cc1ccccc1)NC(=O)OC(C)(C)C (centres undefined)"
assay_value = "> 100 µM"

[[record]]
molecule = "N#C/C(=C\\c1ccc(Br)cc1)n1nnc2cc(F)c(F)cc21"
assay_value = "8.3 µM"

[[record]]
molecule = "CCC(=O)Nc1ccc2c(c1)CN1C(=O)c3ccccc3C1=N2"
assay_value = "> 100 µM"

[[record]]
molecule = "CC1=C(C#N)C(=O)N(/N=C/c2ccc(Cl)cc2)C(=O)/C1=c1\\o/c(=C2/C(=O)N(/N=C/c3ccc(Cl)cc3)C(=O)C(C#N)=C2C)c2nccnc12"
assay_value = "> 100 µM"

[[record]]
molecule = "O=C(CCc1ccc(O)c(O)c1)c1ccc(O)c(O)c1O"
assay_value = "> 100 µM"

[[record]]
molecule = "OC1C=C2C3CN(Cc4cc5c(cc43)OCO5)[C@H]2C[C@@H]1O (some centres undefined)"
assay_value = "> 100 µM"

[[record]]
molecule = "CC(=O)OCCC[C@@H]1C(=C(C)C)CCC2[C@@]1(C)CC[C@@]1(C)C[C@](C)(CCC=C(C)C)CC[C@]21C (some centres undefined)"
assay_value = "> 100 µM"

[[record]]
molecule = "Cc1nc2c(n1CCCl)C(=O)c1ccccc1C2=O"
assay_value = "> 100 µM"

[[record]]
molecule = "O=c1oc2ccccc2c(O)c1C(c1ccc2ccccc2c1)c1c(O)c2ccccc2oc1=O"
assay_value = "70.6 µM"


* * *

Reported values of TGI for individual entries
# System: HCT-15 colon
# procedure_details: NCI tumour cell line growth inhibition, 48 h
readout_name: TGI

[[record]]
smiles_notation = "CN(C)Cc1cc(C(=O)/C=C/c2c(Cl)cccc2Cl)cc(CN(C)C)c1O"
assay_value = "24.2 µM"

[[record]]
smiles_notation = "O=c1c2c([nH]c3nccn13)CCCC2"
assay_value = "> 10 µM"

[[record]]
smiles_notation = "CNC(=O)c1ccc(Nc2nc(OC3CCCC3)c3c(-c4ccc5nc(C)oc5c4)c[nH]c3n2)c(OC)c1"
assay_value = "> 100 µM"

[[record]]
smiles_notation = "COc1cc(/C=C2\\C[C@H]3[C@@H]4CC=C5C[C@@H](OC(C)=O)CC[C@]5(C)[C@H]4CC[C@]3(C)[C@H]2OC(C)=O)ccc1OCCCn1ccnc1"
assay_value = "16 µM"

[[record]]
smiles_notation = "COc1ccc(-c2cc(=O)c3c(O)c(OC)c(O)cc3o2)cc1O"
assay_value = "> 100 µM"

[[record]]
smiles_notation = "O=c1oc2ccccc2c(O)c1C(c1ccc2ccccc2c1)c1c(O)c2ccccc2oc1=O"
assay_value = "47.5 µM"

[[record]]
smiles_notation = "CC[N+](CC)(CC)Cc1cn(S(=O)(=O)c2ccccc2)c2ccccc12"
assay_value = "> 100 µM"

[[record]]
smiles_notation = "CSC1=N/C(=C\\c2ccc(Cl)cc2)C(=O)N1CN1CCOCC1"
assay_value = "> 100 µM"

[[record]]
smiles_notation = "CCC[CH2][Sn]([CH2]CCC)([O]C(=O)c1cccc(F)c1F)[O][Sn]([CH2]CCC)([CH2]CCC)[O]C(=O)c1cccc(F)c1F"
assay_value = "0.797 µM"


* * *

// values below are reported TGI
# Test system: NCI/ADR-RES ovarian
# procedure_details: NCI tumour cell line growth inhibition, 48 h
readout_name: TGI (µM)

[[record]]
molecule = "[N-]=[N+]=Nc1cc(=O)n(-c2ccccc2)c(=O)n1-c1ccccc1"
readout_name = "TGI"
comparison_symbol = ">"
assay_value = 100

[[record]]
molecule = "Cc1cc2c(cc1Cl)SC(NNC(=O)c1ccncc1)=NS2(=O)=O"
readout_name = "TGI"
comparison_symbol = ">"
assay_value = 10

[[record]]
molecule = "O=C(/C=C/c1ccc2c(c1)OCO2)c1ccccc1"
readout_name = "TGI"
comparison_symbol = "="
assay_value = 62.3

[[record]]
molecule = "C/C=C/C/C=C/CCC(=O)C1OC1C(N)=O (stereo unspecified)"
readout_name = "TGI"
comparison_symbol = "="
assay_value = 50.1

[[record]]
molecule = "CO[C@@]12C[C@@H](CNC(=O)c3cc(Br)c[nH]3)O[C@@H]1NC(=O)N2"
readout_name = "TGI"
comparison_symbol = ">"
assay_value = 100

[[record]]
molecule = "CN1CCN(Cc2ccc(NC(=O)c3[nH]ncc3Nc3ccnc4ccsc34)cc2)CC1"
readout_name = "TGI"
comparison_symbol = ">"
assay_value = 100

[[record]]
molecule = "OC1OC(c2ccc[nH]2)C(F)(F)C(F)(F)C1(F)F (stereo unspecified)"
readout_name = "TGI"
comparison_symbol = ">"
assay_value = 100

[[record]]
molecule = "COc1ccc(-c2cc(=O)c3c(O)c(OC)c(O)cc3o2)cc1O"
readout_name = "TGI"
comparison_symbol = ">"
assay_value = 21.2

[[record]]
molecule = "COc1ccc2c(c1)-c1c(c3ccccc3n1CCN1CCCCC1)CC2"
readout_name = "TGI"
comparison_symbol = "="
assay_value = 34.4

[[record]]
molecule = "O=C(Nc1cccc(-c2nc3ccccc3[nH]2)c1)c1cccc(NC(=O)c2ccco2)c1"
readout_name = "TGI"
comparison_symbol = "="
assay_value = 66

[[record]]
molecule = "Cc1c2c(cc3c1[nH]c1ccccc13)C(c1ccc(F)cc1)=NCC2"
readout_name = "TGI"
comparison_symbol = "="
assay_value = 2.36

